# TARGET_OR_TEST_SYSTEM: FGFR3 (Homo sapiens (Human), UniProt P22607)
# Sequence (P22607 23-806): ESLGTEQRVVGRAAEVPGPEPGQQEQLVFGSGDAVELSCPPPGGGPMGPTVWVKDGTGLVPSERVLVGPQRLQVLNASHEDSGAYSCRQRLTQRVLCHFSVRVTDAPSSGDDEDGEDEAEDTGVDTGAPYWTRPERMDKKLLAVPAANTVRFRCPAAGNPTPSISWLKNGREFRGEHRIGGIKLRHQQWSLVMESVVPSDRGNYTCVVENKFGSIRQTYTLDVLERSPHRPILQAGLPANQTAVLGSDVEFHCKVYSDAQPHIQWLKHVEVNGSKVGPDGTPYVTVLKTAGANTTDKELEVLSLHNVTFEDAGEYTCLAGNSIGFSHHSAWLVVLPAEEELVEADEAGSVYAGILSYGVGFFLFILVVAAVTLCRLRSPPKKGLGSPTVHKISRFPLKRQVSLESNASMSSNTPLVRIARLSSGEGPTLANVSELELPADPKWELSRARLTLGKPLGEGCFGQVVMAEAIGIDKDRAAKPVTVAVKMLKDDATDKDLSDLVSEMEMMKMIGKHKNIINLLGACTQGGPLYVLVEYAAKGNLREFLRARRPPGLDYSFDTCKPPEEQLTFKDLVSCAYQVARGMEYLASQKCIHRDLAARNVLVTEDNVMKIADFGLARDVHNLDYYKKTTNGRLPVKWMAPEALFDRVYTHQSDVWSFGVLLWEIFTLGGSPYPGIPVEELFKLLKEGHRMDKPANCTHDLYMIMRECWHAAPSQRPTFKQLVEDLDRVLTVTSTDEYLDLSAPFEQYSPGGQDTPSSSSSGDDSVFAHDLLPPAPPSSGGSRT
# ASSAY_METHOD_TEXT: Kinase assay, binding constants (Kd), kinase-tagged T7 phage, qPCR
Structures can show the parent of a compound that is named as a salt.
Kd listing for selected molecules.

The examples below pair each entry with its known result.
MOLECULE	Kd
C[C@@H](Oc1ccc2[nH]nc(-c3cnc(N4CC(CC(F)(F)F)C4)c(C#N)c3)c2c1)c1c(Cl)cncc1Cl	> 300 nM
C[C@@H](Oc1ccc2[nH]nc(-c3ccc(N4CCNCC4)nc3)c2c1)c1c(Cl)cncc1Cl [Example 2, dihydrochloride]	1 to 20 nM
CNCc1cc(-c2n[nH]c3ccc(O[C@H](C)c4c(Cl)cncc4Cl)cc23)cnc1N1CC2(C1)CN(S(C)(=O)=O)C2	> 300 nM

Turning to the following molecule.
Task: Provide one value: measured Kd of C[C@@H](Oc1ccc2[nH]nc(-c3ccc(N4CC5(C4)CS(=O)(=O)C5)nc3)c2c1)c1c(Cl)cncc1Cl
Result: 1 to 20 nM

----------
# TARGET_OR_TEST_SYSTEM: FGFR3-BAIAP2L1 Ba/F3 cells (Homo sapiens)
# Sequence (P22607 23-806 limits assumed, change not shown): as the sequence (P22607 23-806) above
# ASSAY_METHOD_TEXT: Ba/F3 cell viability assay (CellTiter-Glo 2.0), FGFR3-BAIAP2L1 Ba/F3
# Assay type: cell-based
# RUN_PARAMETERS: FGFR3 > FGFR1 selectivity ratio in Ba/F3 FGFR fusion cell based assays
Mark each entry condition met if its Ba/F3 FGFR1/FGFR3 Selectivity sits below 20, and condition not met for all others.

Some solved entries appear below for comparison.
STRUCTURE_STRING	DISCRETE_LABEL
C[C@@H](Oc1ccc2[nH]nc(-c3cnc(N4CCC5(CCC(=O)N5C)CC4)c(F)c3)c2c1)c1c(Cl)cncc1Cl	condition met
C[C@@H](Oc1ccc2[nH]nc(-c3cnn(C4CCNCC4)c3)c2c1)c1cc(F)cc(F)c1	condition met
COC(=O)N1CCC2(CC1)CN(c1ccc(-c3n[nH]c4ccc(O[C@H](C)c5c(Cl)cncc5Cl)cc34)cn1)C2	condition met

Task: Lab note: confirm whether the reported Ba/F3 FGFR1/FGFR3 Selectivity for this compound is below 20, equality not counting. compound: C[C@@H](Oc1ccc2[nH]nc(-c3ccc(N4CCN(C(N)=O)C5(CC5)C4)nc3)c2c1)c1c(Cl)cncc1Cl
Result: condition met

Task: Is Ba/F3 FGFR1/FGFR3 Selectivity of CCOC(=O)N1CC2(C1)CN(c1ccc(-c3n[nH]c4ccc(O[C@H](C)c5c(C)cnnc5C)cc34)cn1)C2 strictly below 20?
Result: condition not met

----------
# TARGET_OR_TEST_SYSTEM: FGFR3 (Homo sapiens (Human))
# ASSAY_METHOD_TEXT: Kinase assay, binding constants (Kd), kinase-tagged T7 phage, qPCR
Parameter: Kd. Scope: all listed entries.

// known answers, use as guide
STRUCTURE_STRING	Kd
C[C@@H](Oc1ccc2[nH]nc(-c3cnc(N4CC(C(F)(F)F)C4)c(C#N)c3)c2c1)c1c(Cl)cncc1Cl	20 to 100 nM
C[C@@H](Oc1ccc2[nH]nc(-c3ccc(N4CCN(C)CC4=O)nc3)c2c1)c1c(Cl)cncc1Cl	1 to 20 nM
COc1cc2[nH]nc(-c3ccc(N4CCC4)nc3)c2cc1O[C@H](C)c1c(C)cnnc1C	1 to 20 nM
C[C@@H](Oc1ccc2[nH]nc(-c3cnc(N4CCC4)c(C#N)c3)c2c1)c1c(Cl)cnc(F)c1Cl	> 300 nM
COc1cc2[nH]nc(-c3cnc(N4CC5(CCS(=O)(=O)C5)C4)c(C#N)c3)c2cc1O[C@H](C)c1c(Cl)cncc1Cl	1 to 20 nM

Task: Annotate the molecule Cc1ncc(Cl)c([C@@H](C)Oc2cc3c(-c4cnc(N5CCC5)c(F)c4)n[nH]c3cc2Cl)c1Cl with its measured Kd.
Result: 20 to 100 nM

Task: Please give measured Kd of the following entry: C[C@@H](Oc1ccc2[nH]nc(-c3ccc(N4CC5(CNC5)C4)nc3)c2c1)c1cc(F)cc(F)c1
Result: 1 to 20 nM

Task: # return recorded Kd for entry COc1cc2[nH]nc(-c3ccc(N4CC5(C4)CN(S(C)(=O)=O)C5)nc3)c2cc1O[C@@H](C)c1c(C)cnnc1C
Result: 1 to 20 nM

----------
# TARGET_OR_TEST_SYSTEM: FGFR4 (Homo sapiens (Human), UniProt P22455)
# Sequence (P22455 22-802): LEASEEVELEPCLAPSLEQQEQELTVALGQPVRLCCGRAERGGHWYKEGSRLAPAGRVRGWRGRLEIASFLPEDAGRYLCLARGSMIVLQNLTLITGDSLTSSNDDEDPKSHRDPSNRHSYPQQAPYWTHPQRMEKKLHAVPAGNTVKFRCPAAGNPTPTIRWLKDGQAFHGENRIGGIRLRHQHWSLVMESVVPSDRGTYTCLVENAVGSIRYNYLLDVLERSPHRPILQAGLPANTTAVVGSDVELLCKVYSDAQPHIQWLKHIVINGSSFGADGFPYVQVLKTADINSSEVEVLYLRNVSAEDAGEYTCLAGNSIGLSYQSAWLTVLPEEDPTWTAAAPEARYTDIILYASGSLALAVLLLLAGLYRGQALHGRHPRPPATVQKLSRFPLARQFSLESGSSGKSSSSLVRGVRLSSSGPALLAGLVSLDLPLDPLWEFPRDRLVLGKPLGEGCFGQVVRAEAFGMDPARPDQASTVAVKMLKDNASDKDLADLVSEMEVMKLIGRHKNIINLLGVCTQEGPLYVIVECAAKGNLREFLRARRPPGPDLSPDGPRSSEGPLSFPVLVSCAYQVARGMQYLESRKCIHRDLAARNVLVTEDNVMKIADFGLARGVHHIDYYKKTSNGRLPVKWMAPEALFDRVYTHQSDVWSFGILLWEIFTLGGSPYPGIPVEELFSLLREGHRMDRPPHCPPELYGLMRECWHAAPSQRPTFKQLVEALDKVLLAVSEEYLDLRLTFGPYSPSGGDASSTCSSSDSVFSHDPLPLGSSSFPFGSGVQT
# ASSAY_METHOD_TEXT: Kinase assay, binding constants (Kd), kinase-tagged T7 phage, qPCR
REPORTED_PROPERTY: Kd

COMPOUND	RESULT
Cc1ncc(Cl)c([C@@H](C)Oc2cc3c(-c4ccc(N5CC6(C5)CN(S(C)(=O)=O)C6)nc4)n[nH]c3cc2F)c1Cl [Example 266]	1 to 20 nM

Proceed to the following item.
Task: Name the recorded Kd of the item Cc1cnnc(C)c1[C@@H](C)Oc1ccc2[nH]nc(-c3ccc(N4CC5(C4)CN(S(C)(=O)=O)C5)nc3)c2c1 [Example 148] in your answer.
Result: 1 to 20 nM

----------
# TARGET_OR_TEST_SYSTEM: FGFR1 (Homo sapiens (Human))
# Sequence (P11362 22-822): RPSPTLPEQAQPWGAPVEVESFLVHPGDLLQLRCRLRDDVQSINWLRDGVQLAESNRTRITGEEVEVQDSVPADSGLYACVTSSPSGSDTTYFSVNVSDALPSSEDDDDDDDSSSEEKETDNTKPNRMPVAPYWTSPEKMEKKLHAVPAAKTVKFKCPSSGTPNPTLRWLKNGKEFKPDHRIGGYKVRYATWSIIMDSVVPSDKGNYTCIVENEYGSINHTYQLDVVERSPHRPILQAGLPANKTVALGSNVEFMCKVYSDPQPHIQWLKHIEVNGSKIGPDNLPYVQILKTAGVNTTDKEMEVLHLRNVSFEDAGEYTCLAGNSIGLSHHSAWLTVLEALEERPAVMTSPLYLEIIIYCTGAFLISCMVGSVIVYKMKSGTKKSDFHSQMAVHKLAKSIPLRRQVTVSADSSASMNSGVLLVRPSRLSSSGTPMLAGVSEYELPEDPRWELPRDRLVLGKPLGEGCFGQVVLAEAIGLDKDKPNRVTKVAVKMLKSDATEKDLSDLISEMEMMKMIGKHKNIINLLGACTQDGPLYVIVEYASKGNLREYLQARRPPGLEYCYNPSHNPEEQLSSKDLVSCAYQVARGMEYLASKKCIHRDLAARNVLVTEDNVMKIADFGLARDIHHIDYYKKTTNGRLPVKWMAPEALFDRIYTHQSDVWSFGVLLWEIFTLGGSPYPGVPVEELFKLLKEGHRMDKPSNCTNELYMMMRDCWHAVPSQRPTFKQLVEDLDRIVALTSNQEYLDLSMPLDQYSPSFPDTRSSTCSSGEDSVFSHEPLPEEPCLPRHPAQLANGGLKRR
# ASSAY_METHOD_TEXT: Kinase assay, binding constants (Kd), kinase-tagged T7 phage, qPCR
# Experimental: Kinase-tagged T7 phage strains were prepared in an E. coli host derived from the BL21 strain. E. coli were grown to log-phase and infected with T7 phage and incubated with shaking at 32° C. until lysis. The lysates were centrifuged and filtered to remove cell debris. […] Test compounds were prepared as 111λ stocks in 10000 DMS0. Kds were determined using an 11-point 3-fold compound dilution series with three DMSO control points. […] The kinase concentration in the eluates was measured by qPCR. […]
REPORTED_PROPERTY: Kd

Here is how some molecules turned out for Kd.
STRUCTURE_STRING	RESULT
COc1cc2[nH]nc(-c3cnc(N4CC5(C4)CN(S(C)(=O)=O)C5)c(C#N)c3)c2cc1O[C@H](C)c1c(Cl)cnc(C)c1Cl	20 to 100 nM
CC(C)N1CC(n2cc(-c3n[nH]c4ccc(O[C@H](C)c5c(Cl)cncc5Cl)cc34)cn2)C1	1 to 20 nM
COc1cc2[nH]nc(-c3cnc(N4CC5(CCCS(=O)(=O)C5)C4)c(C#N)c3)c2cc1O[C@H](C)c1c(Cl)cncc1Cl	1 to 20 nM

Task: Quickly give me recorded Kd for C[C@@H](Oc1ccc2[nH]nc(-c3cnc(N4CC5(CCNC5)C4)nc3)c2c1)c1c(Cl)cncc1Cl
Result: 20 to 100 nM

----------
# TARGET_OR_TEST_SYSTEM: UniProtKB P22607
# ASSAY_METHOD_TEXT: Kinase assay, binding constants (Kd), kinase-tagged T7 phage, qPCR
REPORTED_PROPERTY: Kd

STRUCTURE_STRING	REPORTED_PROPERTY	RESULT
C[C@@H](Oc1ccc2[nH]nc(-c3cnc(N4CCC(O)CC4)c(C#N)c3)c2c1)c1c(Cl)cncc1Cl	Kd	1 to 20 nM
C[C@@H](Oc1ccc2[nH]nc(-c3ccc(N4CC5(COC5)C4)nc3)c2c1)c1c(Cl)cnnc1Cl	Kd	20 to 100 nM
COc1c(O[C@H](C)c2c(C)cnnc2C)ccc2[nH]nc(-c3ccc(N4CC5(C4)CN(S(C)(=O)=O)C5)nc3)c12	Kd	> 300 nM
C[C@@H](Oc1ccc2[nH]nc(-c3cnc(N4CC(F)(F)C4)c(C#N)c3)c2c1)c1c(Cl)cncc1Cl	Kd	20 to 100 nM
COc1cc2[nH]nc(-c3cnc(N4CC[C@@H]4C)c(F)c3)c2cc1O[C@H](C)c1c(Cl)cncc1Cl	Kd	1 to 20 nM

Task: Supply reported Kd belonging to this compound: C[C@@H](Oc1cc2c(-c3cnc(N4CCC4)c(S(C)(=O)=O)c3)n[nH]c2cc1Cl)c1c(Cl)cncc1Cl
Result: 20 to 100 nM

Task: Read the entry C[C@@H](Oc1cc2c(-c3ccc(N4CC5(C4)CN(S(C)(=O)=O)C5)nc3)n[nH]c2cc1F)c1c(Cl)cnnc1Cl and write its reported Kd.
Result: 1 to 20 nM

Task: Specify reported Kd for the compound shown: Cc1ncc(Cl)c([C@@H](C)Oc2ccc3[nH]nc(-c4cnn(C5CCNCC5)c4)c3c2)c1Cl
Result: 1 to 20 nM

Task: // Input: C[C@@H](Oc1ccc2[nH]nc(-c3cnc(N4CCN(C(=O)N(C)C)CC4)nc3)c2c1)c1c(Cl)cncc1Cl . Output its Kd only.
Result: 1 to 20 nM

Task: Annotate the compound CCS(=O)(=O)N1CC2(CN(c3ccc(-c4n[nH]c5ccc(O[C@H](C)c6c(Cl)cncc6Cl)cc45)cn3)C2)C1 with its measured Kd.
Result: 1 to 20 nM

Task: Report Kd for C[C@@H](Oc1ccc2[nH]nc(-c3ccc(N4CCN(C(N)=O)C5(CC5)C4)nc3)c2c1)c1c(Cl)cncc1Cl
Result: 1 to 20 nM

Values compiled from patent US20240109865A1.
